Attribution: PubChem BioAssay AID1986

Assay: inhibitors of HIV fusion peptide binding, primary screen, biochemical, uHTS, fluorescence dequenching (AID 1986)
Conditions: cell-free peptide binding, 30 min, at 20 µM, stronger effect = higher value
The whole screen tested about 290,000 compounds, of which about 890 (0.31%) were called active. The entries come from a sample that favours actives as a whole.
We begin with a simple list: items and their reported inhibition.
Give the number; % is assumed, so skip it.

The cases that follow already have their inhibition on record.
# compound, valueUnits, inhibition
rows = [
    ("Oc1ccccc1N=Cc1c(O)ccc2ccccc12", "%", 67.4),
    ("CCOC(=O)C1(Cc2ccccc2)CCCN(Cc2cnn(CC)c2)C1 (stereo not drawn)", "%", -1.6),
]

Request: Param item = "O=C1c2ccccc2C(=O)N1Cc1cc(Cl)c(O)c([N+](=O)[O-])c1" ; retrieve measured inhibition.
Response: -1.1
